settings: in toluene, 318.15 K
measured_attribute: solubility (mole fraction)
Lab note: record just the number, no unit beside it.

Please give measured solubility (mole fraction) of the following entry: O=C(Nc1ccc(F)cc1F)c1cccnc1Oc1cccc(C(F)(F)F)c1
0.0252

----------
conditions: in isopropanol, 308.15 K
measured_attribute: solubility (mole fraction)
Lab note: record just the number, no unit beside it.

Please give measured solubility (mole fraction) of the following entry: O=C(Nc1ccc(F)cc1F)c1cccnc1Oc1cccc(C(F)(F)F)c1
0.000665

----------
details: in acetone, 293.15 K
measured_attribute: solubility (mole fraction)
Lab note: record just the number, no unit beside it.

Please give measured solubility (mole fraction) of the following entry: O=C(Nc1ccc(F)cc1F)c1cccnc1Oc1cccc(C(F)(F)F)c1
0.0152

The reported numbers originate from BigSolDB 2.1.
